Assay: Cytotoxicity against human PC3 cells after 48 hrs by MTT assay
Type: functional, cell-based
Conditions: PC-3, 48 h
Some compounds, each annotated with its measured IC50.

| mol | IC50 |
| --- | --- |
| O=C(NCCc1c[nH]c2ccccc12)C(=O)c1cn(Cc2ccc(Cl)cc2)c2ccc(F)cc12 | > 100 µM |
| O=C(NCCc1c[nH]c2ccccc12)C(=O)c1cn(Cc2ccc(Cl)cc2)c2ccccc12 | > 100 µM |
| COc1ccc2c(c1)c(C(=O)C(=O)NCCc1c[nH]c3ccccc13)cn2Cc1ccc(Cl)cc1 | > 100 µM |
| CCn1cc(C(=O)C(=O)NCCc2c[nH]c3ccccc23)c2ccccc21 | > 100 µM |
| COc1cccc2c1C(=O)c1c(O)c3c(c(O)c1C2=O)C[C@@](O)(C(=O)CO)C[C@@H]3O[C@H]1C[C@H](N)[C@H](O)[C@H](C)O1 | 9.5 µM |

* * *

Molecular target: Receptor tyrosine-protein kinase erbB-2 (Homo sapiens, UniProt P04626)
Sequence (P04626 whole entry): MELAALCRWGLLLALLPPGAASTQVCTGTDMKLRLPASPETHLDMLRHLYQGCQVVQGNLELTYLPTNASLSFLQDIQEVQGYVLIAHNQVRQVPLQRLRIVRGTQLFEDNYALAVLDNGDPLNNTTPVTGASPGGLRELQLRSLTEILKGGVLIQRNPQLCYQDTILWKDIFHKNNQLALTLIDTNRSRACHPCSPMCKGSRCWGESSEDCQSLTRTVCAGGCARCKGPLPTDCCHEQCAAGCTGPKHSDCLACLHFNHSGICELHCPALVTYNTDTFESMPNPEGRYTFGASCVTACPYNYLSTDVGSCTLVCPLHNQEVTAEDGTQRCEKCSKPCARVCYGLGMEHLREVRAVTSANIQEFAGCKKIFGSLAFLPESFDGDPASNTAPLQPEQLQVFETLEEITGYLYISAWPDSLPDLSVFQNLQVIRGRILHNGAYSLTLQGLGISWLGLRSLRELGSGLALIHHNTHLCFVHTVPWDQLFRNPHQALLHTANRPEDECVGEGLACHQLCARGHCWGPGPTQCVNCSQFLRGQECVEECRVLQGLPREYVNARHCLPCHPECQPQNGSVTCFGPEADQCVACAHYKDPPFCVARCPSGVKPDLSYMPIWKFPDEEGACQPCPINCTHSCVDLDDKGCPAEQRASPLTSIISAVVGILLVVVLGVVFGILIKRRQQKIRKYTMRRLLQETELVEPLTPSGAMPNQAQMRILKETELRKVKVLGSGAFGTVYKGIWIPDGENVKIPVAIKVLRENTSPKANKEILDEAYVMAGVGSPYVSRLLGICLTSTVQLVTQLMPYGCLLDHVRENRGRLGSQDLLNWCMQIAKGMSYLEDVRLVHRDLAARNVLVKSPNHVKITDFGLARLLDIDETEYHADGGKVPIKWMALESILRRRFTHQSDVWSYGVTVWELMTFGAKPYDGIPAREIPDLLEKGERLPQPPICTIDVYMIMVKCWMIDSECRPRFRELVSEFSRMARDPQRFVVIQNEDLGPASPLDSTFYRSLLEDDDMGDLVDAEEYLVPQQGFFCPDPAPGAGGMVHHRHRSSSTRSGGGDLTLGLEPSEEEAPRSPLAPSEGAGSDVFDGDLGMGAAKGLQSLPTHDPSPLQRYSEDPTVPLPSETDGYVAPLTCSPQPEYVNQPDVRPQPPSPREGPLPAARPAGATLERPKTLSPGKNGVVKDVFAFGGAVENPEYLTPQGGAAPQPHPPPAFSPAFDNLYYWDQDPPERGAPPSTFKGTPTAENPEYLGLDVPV
pIC50: −log10 of the molar value.
measurement.name: pIC50

| mol | observed.value |
| --- | --- |
| O=C1N=C(C(=O)c2c[nH]c3ccccc23)N/C1=C\c1c[nH]c2cc(O)ccc12 | 4.70 |

* * *

Assay: Cytotoxicity against human PC3 cells after 48 hrs by MTT assay
Format: functional, cell-based
Details: PC-3, 48 h
pIC50: −log10 of the molar value.
measurement.name: pIC50

| mol | measurement.name | observed.value |
| --- | --- | --- |
| O=C(NCCc1c[nH]c2ccccc12)C(=O)c1c[nH]c2ccc(Br)cc12 | pIC50 | < 4.00 |
| O=C(NCCc1c[nH]c2ccccc12)C(=O)c1c[nH]c2ccc(F)cc12 | pIC50 | < 4.00 |
| COc1ccc2c(C(=O)C(=O)NCCc3c[nH]c4ccccc34)c[nH]c2c1 | pIC50 | < 4.00 |
| O=C(NCCc1c[nH]c2ccccc12)C(=O)c1cn(Cc2ccc(F)cc2)c2ccccc12 | pIC50 | < 4.00 |
| COc1ccc2c(C(=O)C(=O)NCCc3c[nH]c4ccccc34)cn(Cc3ccc(Cl)cc3)c2c1 | pIC50 | < 4.00 |
| COc1ccc2[nH]cc(C(=O)C(=O)CCCc3c[nH]c4ccccc34)c2c1 | pIC50 | < 4.00 |
| O=C(NCCc1c[nH]c2ccccc12)C(=O)c1cn(Cc2ccc(Cl)cc2)c2ccc(Br)cc12 | pIC50 | < 4.00 |
| Cn1cc(C(=O)C(=O)NCCc2c[nH]c3ccccc23)c2ccccc21 | pIC50 | < 4.00 |
| O=C(NCCc1c[nH]c2ccccc12)C(=O)c1c[nH]c2ccccc12 | pIC50 | 4.42 |
| O=C(NCCc1c[nH]c2ccccc12)C(=O)c1c[nH]c2cc(F)ccc12 | pIC50 | 4.62 |

* * *

Some molecules, each annotated with its measured inhibition zone (IZ).
System: Staphylococcus aureus
Test: Antibacterial activity against Staphylococcus aureus after 18 to 24 hrs by microbroth dilution method; also: test concentration or dose not given here
Format: functional

| mol | inhibition zone (IZ) / mm |
| --- | --- |
| O=C(NCCc1c[nH]c2ccccc12)C(=O)c1c[nH]c2ccc(Br)cc12 | 15 |
| O=C(NCCc1c[nH]c2ccccc12)C(=O)c1cn(Cc2ccc(Cl)cc2)c2ccc(F)cc12 | 13 |
| O=C(NCCc1c[nH]c2ccccc12)C(=O)c1c[nH]c2ccc(F)cc12 | 17 |
| O=C(N[C@H](CO)[C@H](O)c1ccc([N+](=O)[O-])cc1)C(Cl)Cl | 21 |
| CCn1cc(C(=O)C(=O)NCCc2c[nH]c3ccccc23)c2ccccc21 | 14 |
| O=C(NCCc1c[nH]c2ccccc12)C(=O)c1cn(Cc2ccc(Cl)cc2)c2ccccc12 | 17 |
| O=C(NCCc1c[nH]c2ccccc12)C(=O)c1cn(Cc2ccc(F)cc2)c2ccccc12 | 14 |
| COc1ccc2c(C(=O)C(=O)NCCc3c[nH]c4ccccc34)c[nH]c2c1 | 14 |
| Cn1cc(C(=O)C(=O)NCCc2c[nH]c3ccccc23)c2ccccc21 | 16 |
| O=C(NCCc1c[nH]c2ccccc12)C(=O)c1c[nH]c2ccccc12 | 15 |
| O=C(NCCc1c[nH]c2ccccc12)C(=O)c1cn(Cc2ccc(Cl)cc2)c2ccc(Br)cc12 | 13 |

* * *

Assay: Aqueous solubility of compound after 12 hrs by shake-flask method
Assay type: physicochemical
Settings: water

| mol | solubility thermodynamic at 12 h, µg/mL |
| --- | --- |
| O=C(NCCc1c[nH]c2ccccc12)C(=O)c1c[nH]c2ccc(F)cc12 | 0.3 |

* * *

System: MDA-MB-231
Assay: Cytotoxicity against human MDA-MB-231 cells after 48 hrs by MTT assay
Assay type: functional, cell-based
Details: MDA-MB-231, 48 h
pIC50: −log10 of the molar value.
measurement.name: pIC50

| mol | observed.value |
| --- | --- |
| O=C(NCCc1c[nH]c2ccccc12)C(=O)c1c[nH]c2ccc(Br)cc12 | < 4.00 |
| O=C(NCCc1c[nH]c2ccccc12)C(=O)c1cn(Cc2ccc(F)cc2)c2ccccc12 | < 4.00 |
| COc1ccc2c(C(=O)C(=O)NCCc3c[nH]c4ccccc34)c[nH]c2c1 | < 4.00 |
| COc1ccc2[nH]cc(C(=O)C(=O)CCCc3c[nH]c4ccccc34)c2c1 | < 4.00 |
| O=C(NCCc1c[nH]c2ccccc12)C(=O)c1c[nH]c2cc(F)ccc12 | 4.68 |
| COc1ccc2c(c1)c(C(=O)C(=O)NCCc1c[nH]c3ccccc13)cn2Cc1ccc(Cl)cc1 | < 4.00 |
| O=C(NCCc1c[nH]c2ccccc12)C(=O)c1c[nH]c2ccccc12 | 4.31 |
| CCn1cc(C(=O)C(=O)NCCc2c[nH]c3ccccc23)c2ccccc21 | < 4.00 |
| O=C(NCCc1c[nH]c2ccccc12)C(=O)c1c[nH]c2ccc(F)cc12 | < 4.00 |
| COc1ccc2c(C(=O)C(=O)NCCc3c[nH]c4ccccc34)cn(Cc3ccc(Cl)cc3)c2c1 | < 4.00 |
